The reported numbers originate from patent US20230340151A1.

Molecular target: T1, Human GUCY2C ECD Cleaved (human, UniProt P25092 24-430)
T1 construct: also called human GUCY2c extracellular domain protein (ECD)
T1 sequence (P25092 other isoform, or with tags, fused parts or gaps): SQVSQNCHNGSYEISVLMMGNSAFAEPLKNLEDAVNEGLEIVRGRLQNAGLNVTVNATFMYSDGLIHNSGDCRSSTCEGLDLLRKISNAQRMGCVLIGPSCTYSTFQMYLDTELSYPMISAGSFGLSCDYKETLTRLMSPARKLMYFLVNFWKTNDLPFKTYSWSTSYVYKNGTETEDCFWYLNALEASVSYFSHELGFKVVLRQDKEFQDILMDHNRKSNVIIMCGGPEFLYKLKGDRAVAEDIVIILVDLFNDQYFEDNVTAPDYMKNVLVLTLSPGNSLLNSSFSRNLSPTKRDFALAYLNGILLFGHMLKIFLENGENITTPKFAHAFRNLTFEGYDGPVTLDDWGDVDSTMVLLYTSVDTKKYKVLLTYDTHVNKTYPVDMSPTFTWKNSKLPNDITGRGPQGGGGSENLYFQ
Assay: SPR, human IgG1 against human GUCY2c ECD
endpointName: pKd
Just the number, please; pKd means minus log10 of the concentration in mol/L.

Here's what some known entries look like.
# get_value(readout='pKd', item= GUCY2C-1703 (antibody, human IgG1, V domains shown, full human IgG1/kappa) VH: EVQLVESGGGLVQPGGSLRLSCAASGFTFSSYWMHWVRQAPGKGLEWIGEIKPSNRWNNVHEKFKDRFTISVDKAKNSAYLQMNSLRAEDTAVYYCTRTITTTEGYWFFDVWGQGTLVTVSS VL: DIQLTQSPSSLSASVGDRVTITCRASESVDYYGSSLMQWYQQKPGKAPKLLIYAASKLASGVPSRFSGSGSGTDFTLTISSLQPEDFATYYCQQTRKAYTFGQGTKLEIK )
7.99

# get_value(readout='pKd', item= GUCY2C-1706 (antibody, human IgG1, V domains shown, full human IgG1/kappa) VH: EVQLVESGGGLVQPGGSLRLSCAASGFTFSSTWMHWVRQAPGKGLEWIGEIKPSNELTNVHEKFKDRFTISVDKAKNSAYLQMNSLRAEDTAVYYCTRTITTTEGYWFFDVWGQGTLVTVSS VL: DIQLTQSPSSLSASVGDRVTITCRASESVDYYGSSLMQWYQQKPGKAPKLLIYAASKLASGVPSRFSGSGSGTDFTLTISSLQPEDFATYYCQQTRKAYTFGQGTKLEIK )
8.01

Proceeding to the next binder to report its pKd.
# get_value(readout='pKd', item= GUCY2C-1714 (antibody, human IgG1, V domains shown, full human IgG1/kappa) VH: EVQLVESGGGLVQPGGSLRLSCAASGFTFSHTWMHWVRQAPGKGLEWIGEIKPSTKYTNVHEKFKDRFTISVDKAKNSAYLQMNSLRAEDTAVYYCARTIFTREGYWFFDVWGQGTLVTVSS VL: DIQLTQSPSSLSASVGDRVTITCRASESVNWYGSSLMQWYQQKPGKAPKLLIYAASKLASGVPSRFSGSGSGTDFTLTISSLQPEDFATYYCQQTRKAYTFGQGTKLEIK )
7.99
